- protocol.summary: Ki apparent against Clostridium perfringens neuraminidase was determined
- details: read-out: Ki app
value.kind: Ki (µM)
Give the number; µM is assumed, so skip it.

Request: // lookup Ki for CC(=O)NC1C(O)CC(Oc2ccccc2C(F)F)(C(=O)O)OC1[C@H](O)[C@H](O)CO (stereo partly specified)
Response: 150
